Data credit: patent US6979572B1

- measured_target: T1, ROMK1 N124A channel, P35560
- T1 chain: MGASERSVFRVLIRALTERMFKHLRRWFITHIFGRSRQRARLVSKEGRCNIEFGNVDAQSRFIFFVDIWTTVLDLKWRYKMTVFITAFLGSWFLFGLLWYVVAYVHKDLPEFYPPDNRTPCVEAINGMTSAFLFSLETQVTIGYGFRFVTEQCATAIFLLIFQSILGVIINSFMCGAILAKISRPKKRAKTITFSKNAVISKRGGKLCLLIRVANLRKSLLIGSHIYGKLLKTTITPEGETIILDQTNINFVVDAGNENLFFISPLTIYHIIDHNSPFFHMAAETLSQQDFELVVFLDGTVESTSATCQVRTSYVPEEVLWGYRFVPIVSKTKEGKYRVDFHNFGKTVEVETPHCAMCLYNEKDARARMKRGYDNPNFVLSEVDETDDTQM
property: Kd (µM)

{"binder": "ALCNCNRIIIPHMCWKKCGKK (modifications not checked) [synthetic tertiapin]", "measured_result": 0.0139}
